# Test system: 186277-243-T-J2-PDC complex spheroid viability;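 note: spheroids exposed to compounds for seven days; 100% = DMSO vehicle control viability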
# Experiment description: Anticancer human tumor 186277-243-T-J2-PDC patient-derived colon adenocarcinoma cell line growth inhibition [POLQ]
# Test conditions: second compound 3.16 µM; first compound 3.16 µM; active compounds read low
# maps each entry to its viability, T/C
The reply should be a number in %, with the unit left off.

Worked set:
| Compound | Reading unit | Result |
| --- | --- | --- |
| CC(C)n1c(=O)n(C)c2cnc3cc(F)c(-c4ccc(OCCCN5CCCCC5)nc4)cc3c21 + Cc1cccc(N(C)C(=O)C2C(O)CCN2c2nc(C)cc(C(F)(F)F)c2C#N)c1 | % | 107 |
| CCc1cc2c(N3CCc4c(cc(Cn5ccnc5)cc4-c4cn(C)nc4C(F)(F)F)C3=O)cc(C)nc2c(OC)n1 + Cc1cccc(N(C)C(=O)C2C(O)CCN2c2nc(C)cc(C(F)(F)F)c2C#N)c1 | % | 94.1 |
| O=c1[nH]cc(F)c(=O)[nH]1 + COC1C(OC(N)=O)C(O)C(Oc2ccc3c(O)c(NC(=O)c4ccc(O)c(CC=C(C)C)c4)c(=O)oc3c2C)OC1(C)C | % | 66.9 |
| CC1COCCN1c1cc(-c2ccnn2C)c2ccnc(-c3ccn[nH]3)c2n1 (stereo not given) + Nc1ccc(C#CCN(C(=O)Cc2ncc(C(F)(F)F)cc2C(F)(F)F)c2ccc(F)cc2)nn1 | % | 8.2 |
| COc1cccc2c1C(=O)c1c(O)c3c(c(O)c1C2=O)CC(O)(C(=O)CO)CC3OC1CC(N)C(O)C(C)O1 (stereo not given) + Cc1cccc(N(C)C(=O)C2C(O)CCN2c2nc(C)cc(C(F)(F)F)c2C#N)c1 | % | 1.06 |
| COc1cccc2c1C(=O)c1c(O)c3c(c(O)c1C2=O)CC(O)(C(=O)CO)CC3OC1CC(N)C(O)C(C)O1 (stereo not given) + COC1C(OC(N)=O)C(O)C(Oc2ccc3c(O)c(NC(=O)c4ccc(O)c(CC=C(C)C)c4)c(=O)oc3c2C)OC1(C)C | % | 0.2 |

Asked: Return viability, T/C (reported value) for this compound: CCCS(=O)(=O)Nc1ccc(F)c(C(=O)c2c[nH]c3ncc(-c4ccc(Cl)cc4)cc23)c1F + COC1C(OC(N)=O)C(O)C(Oc2ccc3c(O)c(NC(=O)c4ccc(O)c(CC=C(C)C)c4)c(=O)oc3c2C)OC1(C)C
Given back: 88

Asked: Return viability, T/C (reported value) for this compound: Nc1ccn(C2OC(CO)C(O)C2(F)F)c(=O)n1 (stereo not given) + COC1C(OC(N)=O)C(O)C(Oc2ccc3c(O)c(NC(=O)c4ccc(O)c(CC=C(C)C)c4)c(=O)oc3c2C)OC1(C)C
Given back: 7.8

Asked: Return viability, T/C (reported value) for this compound: COc1ccc([C@@H](O)c2cc(-c3ncnc4cc(N5CCOCC5)ccc34)c(F)cc2Cl)nn1 + Nc1ccc(C#CCN(C(=O)Cc2ncc(C(F)(F)F)cc2C(F)(F)F)c2ccc(F)cc2)nn1
Given back: 99.7

Asked: Return viability, T/C (reported value) for this compound: CCCS(=O)(=O)Nc1ccc(F)c(C(=O)c2c[nH]c3ncc(-c4ccc(Cl)cc4)cc23)c1F + Cc1cccc(N(C)C(=O)C2C(O)CCN2c2nc(C)cc(C(F)(F)F)c2C#N)c1
Given back: 77.3
